Record form. Attribute: IC50 (FRNT neutralisation). Fill in for each entry.
biological target: spike protein of SARS-CoV-2 strain Victoria (SARS-CoV-2/human/AUS/VIC01/2020) (SARS-CoV-2, UniProt P0DTC2 14-1273); experiment: cell-based or functional assay
Hi! Could you send only the number? It should be in µg/mL, unit omitted.

Entry antibody 158 (antibody, V domains shown, also called mAb 158) VH: EVQLLESGGDLIQPGGSLRLSCAASGVTVSSNYMSWVRQAPGKGLEWVSIIYPGGSTFYADSVKGRFTISRDNSKNTLYLQMHSLRAEDTAVYYCARDLGSGDMDVWGKGTTVTVSS VL: DIVMTQSPSFLSASVGDRVTITCRASQGISSYLAWYQQKPGKAPKLLIQAASTLQSGVPSRFSGSGSGTEFTLTISSLQPEDFATYYCQQLNSYRYTFGQGTKVEIK , IC50 (FRNT neutralisation) reported as 0.031

Entry antibody 269 (antibody, V domains shown, also called mAb 269) VH: QVQLVESGGGLIQPGGSLRLSCAASGLTVNRNYMSWIRQAPGKGLEWVSVIYSGGSTFYADSVKGRFTISRDNSKNTLSLQMNSLRAEDTAIYYCARDFYEGSFDIWGQGTMVTVSS VL: AIQLTQSPSFLSASIGDRVTITCRASQGISSYLAWYQQKPGKAPKLLIYAASTLQSGVPSRFSGSGSGTEFTLTISSLQPEDFASYYCQQLNSYPAPVFGPGTKVDIK , IC50 (FRNT neutralisation) reported as 0.03

Entry antibody 278 (antibody, V domains shown, also called mAb 278) VH: QVQLVQSGAEVKKPGASVKVSCKASGYIFIRYGISWVRQAPGQGLEWMGWISANNGYTNYAQKLQGRVTMTTDTSTSTAYMELRSLRSDDTAVYYCARDGGILTGYLDYFDHWGQGTLVTVSS VL: DIQMTQSPSSLSASVGDRLTITCRASQSIASYLNWYQQKPGKAPKLLIYAASSLQSGVPSRFSGSGSGTDFTLTISSLQPEDFATYHCQQSYSTLGITFGPGTKVDIK , IC50 (FRNT neutralisation) reported as 0.014

Entry antibody 398 (antibody, V domains shown, also called mAb 398) VH: QVQLVESGGGLVQPGGSLRLSCAASGFTVSSNYMTWVRQAPGKGLEWVSVIYSGGSTYYADSVKGRFTISRDNSKNTLYLQMNSLRADDTAVYYCARDSTADYDFWSGYYVGAFHIWGQGTMVTVSS VL: QTVLTQPASVSGSPGQSITISCTGTSSDVGGYNYVSWYQQHPGKAPKLMIYEVTKRPSGVPDRFSGSKSGNTASLTVSGLQAEDEADYYCSSYAGSNNWVFGGGTKLTVL , IC50 (FRNT neutralisation) reported as 0.091

Entry antibody 165 (antibody, V domains shown, also called mAb 165) VH: QVQLVQSGPEVKKPGTSVKVSCKASGFTFTSSAVQWVRQARGQRLEWIGWIVVGSGNTNYAQKFQESVTITRDMSTSTAYMELSSLRSEDTAVYYCAAPHCIGGSCHDAFDIWGQGTMVTVSS VL: DIVMTQSPGTLSLSPGERATLSCRASQSVRSSYLAWYQQKPGQAPRLLIYGASRRGTGIPDRFSGSGSGTDFTLTISRLEPEDFAVYYCQQYGSSPWTFGQGTKVEIK , IC50 (FRNT neutralisation) reported as 0.034

Entry antibody 132 (antibody, V domains shown) VH: QVQLQQWGAGLLKPSETLSLTCAVYGGSFSGYYWSWIRQPPGKGLEWIGEINHSGSTNYNPSLKSRVTISVDTSKNQFSLKLSSVTAADTAVYYCARTDYYDSIDWGQGTLVTVSS VL: QSVLTQEPSLTVSPGGTVTLTCGSSTGAVTSGHYPYWFQQKPGQVPRTLIYDTRNKHSWTPARFSGSLLGGKAALTLSGAQPEDEAEYYCLLSSSGARVFGGGTKLTVL , IC50 (FRNT neutralisation) reported as 0.048
